Just for reference, ChEMBL document CHEMBL4340525 is where these values come from.

Entries and their measured fold change (FC) follow.
test: Drug level in human P493B cells suspended in human plasma assessed as tumor cell to plasma ratio by measuring 6-diazo-5-oxo-L-norleucine formation at 20 uM measured after 1 hr by LC-MS/MS analysis relative to 6-diazo-5-oxo-L-norleucine alone; format: ADME, cell-based
Lab note: record just the number, no unit beside it.

Some solved cases for reference:
# chemical string, measure name, observed value
records = [
    ("CC(=O)NCCCC[C@H](NC(=O)[C@@H]1Cc2ccccc2CN1C(C)=O)C(=O)N[C@@H](CCC(=O)C=[N+]=[N-])C(=O)OC(C)C", "fold change (FC)", 115),
    ("CC(=O)NCCCC[C@H](NC(=O)OC(C)(C)C)C(=O)N[C@@H](CCC(=O)C=[N+]=[N-])C(=O)OC(C)C", "fold change (FC)", 32),
    ("CC(=O)NCCCC[C@H](NC(=O)C12CC3CC(CC(C3)C1)C2)C(=O)N[C@@H](CCC(=O)C=[N+]=[N-])C(=O)OC(C)C", "fold change (FC)", 55),
]

We next turn to a different compound, shown below.
response.value for CC(=O)NCCCC[C@H](NC(=O)[C@H](Cc1c[nH]c2ccccc12)NC(C)=O)C(=O)N[C@@H](CCC(=O)C=[N+]=[N-])C(=O)OC(C)C (field: fold change (FC)) = 30

* * *

experiment: Drug level in human P493B cells suspended in human plasma assessed as tumor cell to plasma ratio by measuring 6-diazo-5-oxo-L-norleucine formation at 20 uM measured after 1 hr by LC-MS/MS analysis; assay type: ADME, cell-based
# Ratio per entry

Consider CC(=O)NCCCC[C@H](NC(=O)[C@@H]1Cc2ccccc2CN1C(C)=O)C(=O)N[C@@H](CCC(=O)C=[N+]=[N-])C(=O)OC(C)C . Its measured Ratio is 46

Query CC(=O)NCCCC[C@H](NC(=O)[C@H](Cc1c[nH]c2ccccc12)NC(C)=O)C(=O)N[C@@H](CCC(=O)C=[N+]=[N-])C(=O)OC(C)C yields Ratio of 11

According to the records, this molecule CC(=O)NCCCC[C@H](NC(=O)OC(C)(C)C)C(=O)N[C@@H](CCC(=O)C=[N+]=[N-])C(=O)OC(C)C displays Ratio of 13

Looking up CC(=O)NCCCC[C@H](NC(=O)C12CC3CC(CC(C3)C1)C2)C(=O)N[C@@H](CCC(=O)C=[N+]=[N-])C(=O)OC(C)C , I see its Ratio listed as 22

* * *

assay: Prodrug conversion in human P493B cells suspended in human plasma assessed as 6-diazo-5-oxo-L-norleucine formation at 20 uM measured after 1 hr by LC-MS/MS analysis; assay type: ADME, cell-based
Measured Drug metabolism, listed per entry.
Number only, in µM; omit the unit.

# chemical string, Drug metabolism [µM]
measured = [
    ("CC(=O)NCCCC[C@H](NC(=O)[C@@H]1Cc2ccccc2CN1C(C)=O)C(=O)N[C@@H](CCC(=O)C=[N+]=[N-])C(=O)OC(C)C", 0.12),
]

In the following, a different compound is considered.
For CC(=O)NCCCC[C@H](NC(=O)C12CC3CC(CC(C3)C1)C2)C(=O)N[C@@H](CCC(=O)C=[N+]=[N-])C(=O)OC(C)C the compound record lists Drug metabolism as 8.81

* * *

assay: Stability in human liver microsomes assessed as parent compound remaining at 1 uM measured after 1 hr by LC-MS/MS analysis; type: ADME, Microsome; details: read-out: Stability
measure name: remaining at 1 h, 1 µM
Please report the result as a number followed by the unit.

// remaining at 1 h, 1 µM lookup, molecule = CC(=O)NCCCC[C@H](NC(=O)C12CC3CC(CC(C3)C1)C2)C(=O)N[C@@H](CCC(=O)C=[N+]=[N-])C(=O)OC(C)C , result: 100%
